Source listed as patent US20050209251A1.

Test: logP determination by reversed-phase HPLC (EEC Directive 79/831 Annex V.A8), acidic range
Format: physicochemical
Conditions: reversed-phase HPLC column (C18); acidic range: 0.1% phosphoric acid, acetonitrile gradient; C18; 43° C.; read-out: logP a) (Table 1, Physical data)

compound	chromatographic logP
Cn1c(C2CC2)nc2c(cnn2-c2ncc(C(F)(F)F)cc2Cl)c1=O [Example 109]	2.61

---

Test: logP determination by reversed-phase HPLC (EEC Directive 79/831 Annex V.A8), acidic range
Format: physicochemical
reportedEndpoint: logP a) (Table 1, Physical data)

compound	reportedEndpoint	experimentalValue
CCc1nc2c(cnn2-c2ncc(C(F)(F)F)cc2Cl)c(=O)n1C [Example 16]	logP a) (Table 1, Physical data)	(I) logP = 2.46^a)
O=c1[nH]c(C2CCC2)nc2c1cnn2-c1ncc(C(F)(F)F)cc1Cl [Example 63]	logP a) (Table 1, Physical data)	(I) logP = 2.46^a)

---

The reader will find reported melting point values listed item by item below.

structure	melting point / °C
O=c1[nH]c(C2(F)CC2)nc2c1cnn2-c1ncc(C(F)(F)F)cc1Cl	211
O=c1[nH]cnc2c1cnn2-c1ncc(C(F)(F)F)cc1Cl	331
Cc1nc2c(cnn2-c2c(Cl)cc(C(F)(F)F)cc2Cl)c(=O)n1C	195

---

Measured melting point of individual entries

structure	melting point / °C
Cc1nc2c(cnn2-c2c(Cl)cc(C(F)(F)F)cc2Cl)c(=O)[nH]1	300
NC(=O)c1cnn(-c2ncc(C(F)(F)F)cc2Cl)c1NC(=O)C1(F)CC1	204
NC(=O)c1cnn(-c2ncc(C(F)(F)F)cc2Cl)c1N	196
O=c1[nH]c(C2CC2)nc2c1cnn2-c1ncc(C(F)(F)F)cc1Cl	239
Cn1cnc2c(cnn2-c2ncc(C(F)(F)F)cc2Cl)c1=O	253

---

Experiment: logP determination by reversed-phase HPLC (EEC Directive 79/831 Annex V.A8), acidic range
Format: physicochemical
reportedEndpoint: logP a) (Table 1, Physical data)

structure	experimentalValue
CCOC(=O)c1nc2c(cnn2-c2ncc(C(F)(F)F)cc2Cl)c(=O)n1C	(I) logP = 2.74^a)
CC(C)(C)c1nc2c(cnn2-c2ncc(C(F)(F)F)cc2Cl)c(=O)[nH]1	(I) logP = 2.74^a)

---

Listing: chromatographic logP of selected compounds
Assay: logP determination by reversed-phase HPLC (EEC Directive 79/831 Annex V.A8), acidic range
Type: physicochemical
Details: pH 2; HPLC, C18 reversed-phase column; read-out: logP (pH 2)
reportedEndpoint: chromatographic logP

structure	experimentalValue
O=c1[nH]c(C2(F)CC2)nc2c1cnn2-c1ncc(C(F)(F)F)cc1Cl	2.29
Cc1nc2c(cnn2-c2c(Cl)cc(C(F)(F)F)cc2Cl)c(=O)n1C	2.69
NC(=O)c1cnn(-c2ncc(C(F)(F)F)cc2Cl)c1NC(=O)C1(F)CC1	2.02
